Assay: Cytotoxicity against human PBMC assessed as cell viability at 10 ug/ml incubated for 72 hrs by trypan blue dye based assay
Conditions: read-out: Activity
Assay metric: viability at 72 h, 10 ug/ml (%)
Just the number please, in %, no unit attached.

Request: Entry `COc1ccc2c(c1)O[C@@H]1c3cc(OC)c(OC)cc3OC[C@H]21` : reported viability at 72 h, 10 ug/ml = ?
Response: 81

* * *

IC50 overview
Test system: HCT-116
Experiment: Cytotoxicity against human HCT116 cells assessed as reduction in cell viability incubated for 72 hrs by MTT assay
Format: functional, cell-based
Settings: HCT-116, 72 h
Remember to quote the unit after the number.

INSERT INTO results (compound, assay_metric, endpoint_result) VALUES
  ('COc1ccc2c(c1)O[C@H]1c3cc(OC)c(OC)cc3OC[C@@H]21', 'IC50', '38.5 µM');

Request: Entry COc1ccc2c(c1)OC1c3cc(OC)c(OC)cc3OCC21 (racemic) : reported IC50 = ?
Response: 11.4 µM

Request: Entry `COc1ccc2c(c1)O[C@@H]1c3cc(OC)c(OC)cc3OC[C@H]21` : reported IC50 = ?
Response: 2.42 µM
